- System: LNCaP tumor xenograft-bearing CB17-SCID mice
- runDescription: Biodistribution in LNCaP tumor xenograft-bearing CB17-SCID mice
- experimentalContext: 24 h p.i.
// values below are reported Biodistribution Tumor
// units = % ID/g; emit number, no label

compound: CC(C)(C)[Si](F)(c1ccc(C(=O)NC[C@@H](NC(=O)CN2CCN(CC(=O)[O-])CCN(CC(=O)[O-])CCN(CC(=O)[O-])CC2)C(=O)N[C@H](CCCCNC(=O)CCC(=O)NCCC[C@@H](NC(=O)CC[C@H](NC(=O)O[C@@H](CCC(=O)O)C(=O)O)C(=O)O)C(=O)O)C(=O)O)cc1)C(C)(C)C.[177Lu+3] [[^177Lu]Lu-3, [^177Lu]Lu-Carbamate I]
Biodistribution Tumor / % ID/g: 1.20

Now examine the next entry.
input: Query Biodistribution Tumor for CCCCCC[C@H](NC(=O)CC[C@H](NC(=O)N[C@@H](CCC(=O)N[C@H](CCCNC(=O)CCC(=O)NCCCC[C@@H](NC(=O)[C@@H](CNC(=O)c1ccc([Si](F)(C(C)(C)C)C(C)(C)C)cc1)NC(=O)CN1CCN(CC(=O)[O-])CCN(CC(=O)[O-])CCN(CC(=O)[O-])CC1)C(=O)O)C(=O)O)C(=O)O)C(=O)O)C(=O)O.[177Lu+3] [[^177Lu]Lu-6, [^177Lu]Lu-Proinhibitor II]
output: 0.33
